tested on: LHRH binding sites on human ovarian cancer cells (EFO-27);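 also: Cell-associated radioactivity on confluent EFO-27 monolayers in 96-well plates, measured by microplate scintillation counting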
Non-standard residues stand in square brackets, D forms with d. Residues, ends and D or L forms follow the SMILES beside them. *: point of attachment. DOTA = O=C(O)CN1CCN(CC(=O)O)CCN(CC(=O)*)CCN(CC(=O)O)CC1; Bpa = N[C@@H](Cc1ccc(C(=O)c2ccccc2)cc1)C(=O)O; d2Nal = N[C@H](Cc1ccc2ccccc2c1)C(=O)O; azaGly = NNC(=O)O
# EC50 values compiled below
experimental_endpoint: EC50 (µM)

- N=C(N)NCCC[C@H](NC(=O)[C@@H](Cc1ccc2ccccc2c1)NC(=O)CN1CCN(CC(=O)O)CCN(CC(=O)O)CCN(CC(=O)O)CC1)C(=O)N[C@@H](CCC(=O)O)C(=O)N[C@@H](CO)C(=O)N[C@@H](Cc1c[nH]cn1)C(=O)N[C@H](CCCNC(=N)N)C(=O)N[C@@H](Cc1c[nH]c2ccccc12)C(=O)N[C@@H](Cc1ccc(C(=O)c2ccccc2)cc1)C(=O)N1CCC[C@H]1C(=O)NNC(N)=O [BRU-3110] ({DOTA}-[d2Nal]RESH[dR]W[Bpa]P[azaGly]-NH2; C-terminus assumed): 2.6
- N=C(N)NCCC[C@H](NC(=O)[C@@H](Cc1ccc2ccccc2c1)NC(=O)CN1CCN(CC(=O)O)CCN(CC(=O)O)CCN(CC(=O)O)CC1)C(=O)N[C@@H](Cc1c[nH]c2ccccc12)C(=O)N[C@@H](Cc1c[nH]c2ccccc12)C(=O)N[C@@H](Cc1c[nH]cn1)C(=O)N[C@H](CCCNC(=N)N)C(=O)N[C@@H](Cc1c[nH]c2ccccc12)C(=O)N[C@@H](Cc1ccc(C(=O)c2ccccc2)cc1)C(=O)N1CCC[C@H]1C(=O)NNC(N)=O [compound 3114] ({DOTA}-[d2Nal]RWWH[dR]W[Bpa]P[azaGly]-NH2): 11.5
